targetOrSystem: UniProtKB Q9UHD2
Sequence (Q9UHD2 whole entry): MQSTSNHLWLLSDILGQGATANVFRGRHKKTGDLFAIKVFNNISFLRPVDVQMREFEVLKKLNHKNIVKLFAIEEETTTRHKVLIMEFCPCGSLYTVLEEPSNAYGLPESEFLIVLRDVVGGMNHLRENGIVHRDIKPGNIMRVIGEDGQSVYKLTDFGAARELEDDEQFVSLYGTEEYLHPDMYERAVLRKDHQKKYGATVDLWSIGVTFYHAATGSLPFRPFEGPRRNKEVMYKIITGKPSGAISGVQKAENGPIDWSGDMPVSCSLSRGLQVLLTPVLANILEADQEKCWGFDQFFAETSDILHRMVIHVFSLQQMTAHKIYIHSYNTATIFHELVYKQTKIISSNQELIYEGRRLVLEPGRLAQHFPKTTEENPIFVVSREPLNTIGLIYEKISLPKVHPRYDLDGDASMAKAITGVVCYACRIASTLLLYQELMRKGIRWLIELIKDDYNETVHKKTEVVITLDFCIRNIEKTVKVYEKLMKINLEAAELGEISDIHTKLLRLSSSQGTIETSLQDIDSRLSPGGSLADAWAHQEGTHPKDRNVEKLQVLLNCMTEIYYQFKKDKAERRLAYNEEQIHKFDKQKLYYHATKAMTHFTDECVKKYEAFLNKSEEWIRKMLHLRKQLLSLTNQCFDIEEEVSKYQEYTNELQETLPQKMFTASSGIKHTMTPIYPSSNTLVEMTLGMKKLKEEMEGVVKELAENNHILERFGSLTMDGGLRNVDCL
methodSummary: TR-FRET enzymatic assay, phosphorylation of biotinylated serine/threonine peptide substrate (TBK1)
conditionSet: read-out: TBK1-IC50; full length recombinant TBK1, 2×Km ATP (40-80 μM), 1 μM peptide, 240 minutes at 25° C.; geometric mean of minimum four determinations
endpointLabel: IC50 (nM)
// return numeric value only (unit: nM, not printed)

Fetch value of IC50 on UniProtKB Q9UHD2 for "N#Cc1cc(-c2ncnc3[nH]c(-c4ccc(N5CCOCC5)c(F)c4)nc23)ccc1OC1CCN(C(=O)CO)CC1" .
2.64
